Tested on: classical complement pathway
Experiment: CH50 assay, human serum, sensitized sheep red blood cell hemolysis
Type: cell-based
Settings: sensitized sheep red blood cells, 1 hour at 37° C., read-out: IC50, inhibition of human complement-mediated red blood cell hemolysis
PARAMETER: pIC50
The value called pIC50 is obtained by taking minus log10 of the concentration in mol/L.

Problem: Sample O=C(O)C1=CC(=Cc2cc(C(c3ccc(O)c(C(=O)O)c3)c3ccc(O)c(C(=O)O)c3)cc(C(=O)O)c2O)C=CC1=O — what was its pIC50?
Result: 6.24
